tested on: Neuregulin-1 EGF-like domain; assay: binders of neuregulin-1 EGF-like domain, primary screen, biochemical, small-molecule microarray, 635 nm fluorescence (AID 1081); conditions: small-molecule microarray binding, higher = more signal;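 also: binding of the protein to compounds printed on small-molecule microarray slides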
Decision: composite z-score >= 1 yields y, all other cases yield n.

Use these answered entries as a reference point.
compound=CCOC(=O)C1=CC[C@@H](c2cccc(Cl)c2)N(S(=O)(=O)c2ccc(C)cc2)C1 class=y
compound=O=C1O[C@H](c2ccccc2)[C@H](c2ccccc2)N2[C@H]1[C@@H](C(=O)O)[C@]1(C(=O)Nc3ccc(C#CC4=CCCCC4)cc31)[C@H]2c1ccc(O)cc1 class=y
compound=CC(C)N1C(=O)c2ccccc2[C@@H](C(=O)NC2CC2)[C@@H]1c1ccc(CO)cc1 class=y
compound=CCOC(=O)C[C@H]1[C@H](OC(=O)c2cc3ccccc3oc2=O)[C@@H](NC(=O)c2ccc(-c3ccccc3)cc2)c2cc(OCCCO)ccc2N1C(=O)c1ccccc1 class=y
compound="COc1cc(OC)c(C(O)C2C=CC3C(=O)N(C)C(=O)C3N2NC(=O)OC(C)(C)C)cc1Br (stereo not given)" class=y
compound=C=C(CCCC)/C(=C/C[C@@H](OC(=O)c1ccncc1)c1ccccc1OCCO)c1cnc2ccccc2c1 class=y

IN: Check if composite z-score >= 1 (inclusive). Item: O=C1C2C=CC(C(O)c3ccc(F)cc3)N(n3cnnc3)C2C(=O)N1Cc1ccccc1 (stereo not given)
OUT: n

IN: Check if composite z-score >= 1 (inclusive). Item: COCCCNC(=O)[C@]1(CCS(=O)(=O)c2ccccc2)N=C(c2ccc(OCCCO)cc2)O[C@@H]1c1ccccc1CN=[N+]=[N-]
OUT: y

---

experiment: small-molecule microarray binders of probe aWnt5a, primary screen, biochemical, biotinylated probe, 635/667 nm fluorescence (AID 1113); conditions: higher = more signal;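 also: score merges 667 nm fluorescence intensity with signal-to-noise per printed feature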
Would you mind telling me the reported composite z-score of each entry?
Numbers only.

compound=Cc1ccc(S[C@]2(C(=O)NCC(F)(F)F)CC(=O)N(Cc3ccccc3)[C@@H]2c2ccc(CO)cc2I)cc1 val=-0.0203
compound=O=C(N1CCCCC1)[C@@]1(CCS(=O)(=O)c2ccccc2)COC(c2ccc(OCCCO)cc2)=N1 val=0.0374
compound="OCCCC1=CC(c2ccc(CN3CCCC3)cc2)N(Cc2sc3ccccc3c2Cl)CC1 (centres undefined)" val=-0.113
compound=O=C1C[C@@](C(=O)NCCN2CCOCC2)(c2ccc([N+](=O)[O-])cc2)[C@@H](c2ccc(CO)cc2I)N1C1CCCCC1 val=-0.0445
compound=COCCCNC(=O)[C@]1(CCS(=O)(=O)c2ccccc2)N=C(c2ccc(OCCCO)cc2)O[C@@H]1c1ccccc1N=[N+]=[N-] val=0.0988

Give composite z-score for each listed item.
1. CN1C(=O)C2C=CC(C(O)COCc3ccccc3)N(N(c3ccccc3)c3ccccc3)C2C1=O (centres undefined)
2. COC(=O)CCCCCCC(=O)Nc1ccc(NC(=O)CCCC[P+](c2ccccc2)(c2ccccc2)c2ccccc2)cc1

OUT:
1. 0.0915
2. -0.0751

Give composite z-score for each listed item.
1. COc1ccc([Si](C)(C)[C@@H]2[C@@H](CCn3cc([C@H](O)c4ccccc4)nn3)O[C@]3(C(=O)N(Cc4ccc(N5CCC5=O)cc4)c4ccccc43)[C@H]2C)cc1
2. O=C1NC(=O)C2C1C=CC(C(O)c1cccc3ccccc13)N2Nc1ccc(Cl)cc1Cl (centres undefined)

OUT:
[-0.217, 0.0654]
